Molecular target: pT7_6His-AlfaTag-HOXD13 (human, UniProt P35453 263-343)
Sequence (P35453 263-343): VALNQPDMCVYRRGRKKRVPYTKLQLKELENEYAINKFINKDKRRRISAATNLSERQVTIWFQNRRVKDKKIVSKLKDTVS
Test: PADIT-seq
Conditions: dsDNA, one strand shown
Measured binding signal, listed per entry.
measured_metric: binding signal (log2FC)

>>> assay_result("CTCGAGGATATCAAGATCTGGCCTCGGCTTTTTAGATGGAACCTCTAGCTAGCCGACTCACTATAGGGATAATCGCCCTGAGCAAAGACC")
0.28
>>> assay_result("CTCGAGGATATCAAGATCTGGCCTCGGCATTTTACAAGGAACCTCTAGCTAGCCGACTCACTATAGGGATAATCGCCCTGAGCAAAGACC")
3.41
>>> assay_result("CTCGAGGATATCAAGATCTGGCCTCGGCCCCTTAAAAGGAACCTCTAGCTAGCCGACTCACTATAGGGATAATCGCCCTGAGCAAAGACC")
2.7

Entry source: paper doi:10.1101/2024.03.05.583629
